Origin of the recorded values: patent US8846746B2

target.of.assay: UniProt P13866
Sequence (P13866 whole entry): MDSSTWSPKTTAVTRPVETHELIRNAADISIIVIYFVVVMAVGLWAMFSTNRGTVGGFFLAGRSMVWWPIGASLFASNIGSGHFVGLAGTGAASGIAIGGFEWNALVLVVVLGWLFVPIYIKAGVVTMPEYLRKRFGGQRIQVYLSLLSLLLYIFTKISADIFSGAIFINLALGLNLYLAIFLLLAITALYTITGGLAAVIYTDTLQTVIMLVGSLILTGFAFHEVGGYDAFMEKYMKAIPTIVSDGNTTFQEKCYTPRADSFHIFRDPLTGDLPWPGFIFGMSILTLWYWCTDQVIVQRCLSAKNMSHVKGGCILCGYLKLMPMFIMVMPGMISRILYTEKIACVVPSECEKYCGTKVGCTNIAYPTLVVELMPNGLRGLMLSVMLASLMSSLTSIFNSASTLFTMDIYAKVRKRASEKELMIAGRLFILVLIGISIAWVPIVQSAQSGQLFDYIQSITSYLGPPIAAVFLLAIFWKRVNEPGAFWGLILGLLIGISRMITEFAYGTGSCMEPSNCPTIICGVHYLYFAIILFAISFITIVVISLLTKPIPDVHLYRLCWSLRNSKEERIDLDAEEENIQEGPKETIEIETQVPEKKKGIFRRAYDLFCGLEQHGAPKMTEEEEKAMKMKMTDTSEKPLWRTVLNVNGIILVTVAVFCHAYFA
run.description: SGLT1 inhibitory activity: 14C-AMG uptake into CHO-K1 cell line stably expressing human SGLT1
Format: cell-based
stated.conditions: 14C-AMG uptake, CHO-K1 cells stably expressing human SGLT1
Measured IC50 values are reported for all entries that follow.

{"columns": ["compound", "IC50, nM"],
 "data": [
  ["O=C1C[C@H](C(=O)Nc2cc(-c3cc(F)cc(COCC(F)(F)F)c3)n(-c3ccccc3Cl)n2)CN1 [Example 510]", 8.3],
  ["CCCc1cccc(-c2cc(NC(=O)[C@@H]3CNC(=O)C3)nn2-c2ccccc2CC)c1 [Example 358]", 17],
  ["CCCc1cccc(-c2cc(NC(=O)[C@@H]3CNC(=O)C3)nn2-c2cccc(O)c2)c1 [Example 341]", 60],
  ["CCOc1ccc(F)c(-n2nc(NC(=O)[C@@H]3CNC(=O)C3)cc2-c2cccc(COCC(F)(F)F)c2)c1 [Example 460]", 2.1],
  ["CC(C)OCc1cccc(-c2cc(NC(=O)[C@H]3CNC(=O)C3)nn2-c2ccccc2)c1 [Example 311]", 17.5],
  ["CC(C)(C)COCc1cccc(-c2cc(NC(=O)[C@@H]3CNC(=O)C3)nn2-c2ccccc2)c1 [Example 315]", 15.5],
  ["CCCc1cccc(-c2cc(NC(=O)[C@@H]3CNC(=O)C3)nn2-c2cccc(OC(C)(C)C)c2)c1 [Example 435]", 3.45],
  ["CCCc1cccc(-c2cc(NC(=O)[C@@H]3CNC(=O)C3)nn2-c2cccc(C=C(C)C)c2)c1 [Example 493]", 8.2],
  ["O=C1NC[C@H](C(=O)Nc2cc(-c3cc(F)cc(COCC(F)(F)F)c3)n(-c3ccc(Cl)cc3)n2)N1 [Example 596]", 35],
  ["CCCc1cccc(-c2cc(NC(=O)[C@@H]3CNC(=O)C3)nn2-c2cccc(OCCOCc3ccccc3)c2)c1 [Example 407]", 7.6],
  ["CC(C)COCc1cccc(-c2cc(NC(=O)[C@@H]3CNC(=O)C3)nn2-c2ccccc2)c1 [Example 314]", 15],
  ["C[C@@H](OCc1cc(Cl)cc(-c2cc(NC(=O)[C@H]3CNC(=O)N3)nn2-c2ccccc2)c1)C(F)(F)F [Example 597]", 60],
  ["O=C1NC[C@H](C(=O)Nc2cc(-c3cccc(COCC(F)(F)F)c3)n(-c3ccccc3)n2)O1 [Example 305]", 29],
  ["CCCc1cccc(-c2cc(NC(=O)[C@@H]3CNC(=O)C3)nn2-c2cccc(OCCOC)c2)c1 [Example 406]", 7.85],
  ["CC[C@@H](C)OCc1cccc(-c2cc(NC(=O)[C@@H]3CNC(=O)C3)nn2-c2ccccc2)c1 [Example 350]", 25],
  ["C[C@@H](OCc1cc(Cl)cc(-c2cc(NC(=O)[C@@H]3CNC(=O)C3)nn2-c2ccccc2F)c1)C(F)(F)F [Example 577]", 6.7],
  ["O=C1C[C@H](C(=O)Nc2cc(-c3cccc(COC(C(F)(F)F)C(F)(F)F)c3)n(-c3ccc(Cl)cc3)n2)CN1 [Example 576]", 19],
  ["CC(C)Oc1ccc(F)c(-n2nc(NC(=O)[C@@H]3CNC(=O)C3)cc2-c2cccc(COCC(F)(F)F)c2)c1 [Example 461]", 1.4],
  ["CCCOc1cc(-n2nc(NC(=O)[C@@H]3CNC(=O)C3)cc2-c2cccc(COCC(F)(F)F)c2)ccc1F [Example 419]", 4.75],
  ["COc1ccc(F)c(-n2nc(NC(=O)[C@@H]3CNC(=O)C3)cc2-c2cccc(OC(F)(F)F)c2)c1 [Example 515]", 12],
  ["CCC(C)(C)Oc1cccc(-c2cc(NC(=O)[C@@H]3CNC(=O)C3)nn2-c2ccccc2)c1 [Example 291]", 5.1],
  ["CCCCc1cccc(-c2cc(NC(=O)[C@@H]3CNC(=O)N3)nn2-c2ccccc2)c1 [Example 268]", 8.5],
  ["CCCOCc1cccc(-c2cc(NC(=O)[C@H]3CNC(=O)C3)nn2-c2ccccc2)c1 [Example 312]", 22],
  ["CCOc1cccc(-n2nc(NC(=O)[C@@H]3CNC(=O)C3)cc2-c2cccc(CO[C@H](C)C(F)(F)F)c2)c1 [Example 452]", 1.7],
  ["CCCc1cccc(-c2cc(NC(=O)[C@@H]3CNC(=O)C3)nn2-c2ccc(F)c(OCC)c2)c1 [Example 390]", 9.4],
  ["COC(C)(C)c1cccc(-c2cc(NC(=O)[C@H]3CNC(=O)N3)nn2-c2ccccc2)c1 [Example 269]", 92],
  ["CCCc1cccc(-c2cc(NC(=O)C3CC[S+]([O-])CC3)nn2-c2ccccc2)c1 (centres unmarked) [Example 318]", 3.2],
  ["O=C1C[C@H](C(=O)Nc2cc(-c3cccc(OC(F)(F)F)c3)n(-c3cccc(OCc4ccccc4)c3)n2)CN1 [Example 436]", 19],
  ["CCCc1cccc(-c2cc(NC(=O)[C@@H]3CNC(=O)C3)nn2-c2cccc(OCCCSC)c2)c1 [Example 490]", 7.6]
]}

---

Measured log10(IC50) values are reported for all entries that follow.
target.of.assay: UniProt:P13866
run.description: SGLT1 inhibitory activity: 14C-AMG uptake into CHO-K1 cell line stably expressing human SGLT1
Assay type: cell-based
stated.conditions: 14C-AMG uptake, CHO-K1 cells stably expressing human SGLT1
measurement.type: log10(IC50) (log10 of the value in nM)

{"columns": ["compound", "measurement.type", "readout.number"],
 "data": [
  ["O=C1C[C@H](C(=O)Nc2cc(-c3cc(F)cc(COC(C(F)(F)F)C(F)(F)F)c3)n(-c3ccccc3)n2)CN1 [Example 585]", "log10(IC50)", 1.11],
  ["CCCc1cccc(-c2cc(NC(=O)[C@@H]3CNC(=O)C3)nn2-c2ccccc2OC)c1 [Example 376]", "log10(IC50)", 1.49],
  ["CC(C)COc1cccc(-c2cc(NC(=O)[C@H]3CNC(=O)C3)nn2-c2ccccc2)c1 [Example 287]", "log10(IC50)", 1.08],
  ["COCCOc1cccc(-n2nc(NC(=O)[C@@H]3CNC(=O)C3)cc2-c2cccc(COCC(F)(F)F)c2)c1 [Example 450]", "log10(IC50)", 0.91],
  ["CC(C)(C)COCc1cccc(-c2cc(NC(=O)C3CCC(=O)NC3)nn2-c2ccccc2)c1 (single isomer, unassigned) [Example 333]", "log10(IC50)", 1.30],
  ["CCCc1cccc(-c2cc(NC(=O)[C@H]3CNC(=O)N3CCOC)nn2-c2ccccc2)c1 [Example 346]", "log10(IC50)", 0.43],
  ["CC(C)(C)CS(=O)(=O)c1cccc(-c2cc(NC(=O)[C@@H]3CNC(=O)C3)nn2-c2ccccc2)c1 [Example 540]", "log10(IC50)", 1.68],
  ["C[C@@H](OCc1cccc(-c2cc(NC(=O)[C@@H]3CNC(=O)C3)nn2-c2cccc(O)c2)c1)C(F)(F)F [Example 441]", "log10(IC50)", 0.95],
  ["C[C@@H](OCc1cc(F)cc(-c2cc(NC(=O)[C@@H]3CNC(=O)C3)nn2-c2ccccc2Cl)c1)C(F)(F)F [Example 513]", "log10(IC50)", 0.51],
  ["CCC(CC)OCc1cccc(-c2cc(NC(=O)[C@@H]3CNC(=O)C3)nn2-c2ccccc2)c1 [Example 332]", "log10(IC50)", 1.34],
  ["CCCc1cccc(-c2cc(NC(=O)[C@@H]3CNC(=O)C3)nn2-c2ccc(O)cc2)c1 [Example 371]", "log10(IC50)", 1.56],
  ["CC(C)Oc1cc(F)cc(-n2nc(NC(=O)[C@@H]3CNC(=O)C3)cc2-c2cccc(OC(F)(F)F)c2)c1 [Example 526]", "log10(IC50)", 0.96],
  ["O=C1C[C@H](C(=O)Nc2cc(-c3cccc(COCC(F)(F)F)c3)n(-c3cccc(F)c3)n2)CN1 [Example 468]", "log10(IC50)", 1.23],
  ["CC(C)(OCc1cccc(-c2cc(NC(=O)[C@@H]3CNC(=O)C3)nn2-c2ccccc2)c1)C(F)(F)F [Example 352]", "log10(IC50)", 1.15],
  ["CCCc1cccc(-c2cc(NC(=O)[C@@H]3CNC(=O)N3CC)nn2-c2ccccc2)c1 [Example 295]", "log10(IC50)", 1.46],
  ["COc1cccc(-n2nc(NC(=O)[C@@H]3CNC(=O)C3)cc2-c2cccc(COCC(F)(F)F)c2)c1F [Example 480]", "log10(IC50)", 0.83],
  ["CCCOCc1cccc(-c2cc(NC(=O)[C@@H]3CNC(=O)C3)nn2-c2ccccc2)c1 [Example 300]", "log10(IC50)", 1.58],
  ["CCCc1cccc(-c2cc(NC(=O)[C@H]3CNC(=O)N3CC)nn2-c2ccccc2)c1 [Example 303]", "log10(IC50)", 0.67],
  ["CCCc1cccc(-c2cc(NC(=O)[C@@H]3CNC(=O)N3CCC)nn2-c2ccccc2)c1 [Example 297]", "log10(IC50)", 1.85],
  ["O=C1CCC(C(=O)Nc2cc(-c3cccc(COCC(F)(F)F)c3)n(-c3ccccc3)n2)CN1 (single isomer, unassigned) [Example 560]", "log10(IC50)", 1.38],
  ["CC(C)(OCc1cc(F)cc(-c2cc(NC(=O)[C@@H]3CNC(=O)C3)nn2-c2ccc(Cl)cc2)c1)C(F)(F)F [Example 580]", "log10(IC50)", 0.88],
  ["C[C@@H](OCc1cccc(-c2cc(NC(=O)[C@H]3CNC(=O)N3)nn2-c2ccc(Cl)cc2)c1)C(F)(F)F [Example 590]", "log10(IC50)", 1.11],
  ["C[C@@H](OCc1cc(F)cc(-c2cc(NC(=O)[C@@H]3CNC(=O)C3)nn2-c2ccc(Cl)cc2)c1)C(F)(F)F [Example 236]", "log10(IC50)", 0.73],
  ["CCCc1cccc(-c2cc(NC(=O)[C@@H]3CNC(=O)C3)nn2-c2cccc(CC)c2)c1 [Example 393]", "log10(IC50)", 0.72],
  ["CC(C)Oc1cccc(-c2cc(NC(=O)[C@H]3CNC(=O)C3)nn2-c2ccccc2)c1 [Example 321]", "log10(IC50)", 1.34],
  ["CCCc1cccc(-c2cc(NC(=O)C3CNC(=O)C34CC4)nn2-c2ccccc2)c1 (single isomer, unassigned) [Example 360]", "log10(IC50)", 0.18],
  ["O=C(Nc1cc(-c2cccc(COCC(F)(F)F)c2)n(-c2ccccc2)n1)C1CNC(=O)C12CC2 (single isomer, unassigned) [Example 250]", "log10(IC50)", 0.53],
  ["O=C1C[C@H](C(=O)Nc2cc(-c3cc(Cl)cc(COCC(F)(F)F)c3)n(-c3ccccc3F)n2)CN1 [Example 587]", "log10(IC50)", 1.60]
]}
